Recorded inhibition at 1 µM, one value per entry.
Test System: LCK tyrosine kinase (Homo sapiens, UniProt P06239, C224D/P223M)
Sequence (P06239 223-509 P223M/C224D): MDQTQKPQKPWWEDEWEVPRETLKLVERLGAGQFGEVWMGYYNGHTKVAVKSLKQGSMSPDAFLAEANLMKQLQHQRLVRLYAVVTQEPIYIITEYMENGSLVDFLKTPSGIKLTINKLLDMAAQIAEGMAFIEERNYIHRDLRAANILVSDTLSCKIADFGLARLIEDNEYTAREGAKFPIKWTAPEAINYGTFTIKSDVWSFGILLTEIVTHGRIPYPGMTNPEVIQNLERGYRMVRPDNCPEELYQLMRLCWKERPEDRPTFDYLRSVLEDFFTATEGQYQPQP
Assay Notes: LCK spectrophotometric assay
Assay type: biochemical
Measurement Parameters: Table 1; compound concentration 1 µM; read-out: Lck-P* (% inhibition)
Report as a plain number; the unit % is understood.

A selection of reference data follows.
>  <Compound>
C#CCNC(=O)c1ccccc1Sc1ccc2c(/C=C/c3ccccn3)n[nH]c2c1 [Reference Example 35(cc)]

>  <Unit Abbrev>
%

>  <Value Observed>
15

$$$$
>  <Compound>
Cc1cccc(C(=O)Nc2cccc(N(C)c3ccc4c(/C=C/c5ccc6c(c5)OCO6)n[nH]c4c3)c2)c1

>  <Unit Abbrev>
%

>  <Value Observed>
22

$$$$
>  <Compound>
CC(C)NC(=O)c1ccccc1Sc1ccc2c(/C=C/c3ccccn3)n[nH]c2c1 [Reference Example 35(b)]

>  <Unit Abbrev>
%

>  <Value Observed>
12

$$$$
>  <Compound>
CN(c1cccc(NC(=O)c2ccccc2)c1)c1ccc2c(/C=C/c3ccc4c(c3)OCO4)n[nH]c2c1

>  <Unit Abbrev>
%

>  <Value Observed>
28

$$$$
>  <Compound>
Cc1cc(C(=O)Nc2cc(C(=O)c3ccc4c(/C=C/c5ccccn5)n[nH]c4c3)ccc2C)n(C)n1 [Reference Example 41(hh)]

>  <Unit Abbrev>
%

>  <Value Observed>
13

$$$$

Endpoint output: inhibition at 1 µM of `Cc1cnc(C(=O)Nc2cccc(N(C)c3ccc4c(/C=C/c5ccccc5)n[nH]c4c3)c2)s1` . Value? 31

So what's the measured inhibition at 1 µM for this one? O=C(NCc1cccc(F)c1)c1ccccc1Sc1ccc2c(/C=C/c3ccccn3)n[nH]c2c1 [Reference Example 35(ff)] 25

Entry under review: O=C(Cc1cc(F)cc(F)c1)Nc1cccc(C(=O)c2ccc3c(/C=C/c4ccccn4)n[nH]c3c2)c1 [Reference Example 41(f)] . Reported inhibition at 1 µM? 65

Form field: reported inhibition at 1 µM of CCc1cc(C(=O)Nc2cccc(C(=O)c3ccc4c(/C=C/c5ccccn5)n[nH]c4c3)c2)n(C)n1 [Reference Example 41(v)] 52

Recorded inhibition at 1 µM of CC(=O)c1ccc(C(=O)Nc2cccc(C(=O)c3ccc4c(/C=C/c5ccccn5)n[nH]c4c3)c2)s1 [Reference Example 41(e)] , please. 21

What does the record list as inhibition at 1 µM for Cn1ccnc1C(=O)Nc1cccc(Oc2ccc3c(/C=C/c4ccccn4)n[nH]c3c2)c1 [Reference Example 31(e)] ? 43

inhibition at 1 µM lookup needed for `CC(=O)Nc1cccc(Oc2ccc3c(/C=C/c4ccccc4)n[nH]c3c2)c1` , thanks. 13

Fill blank: measured inhibition at 1 µM of the compound O=C(N[C@@H]1C[C@H]1c1ccccc1)c1ccccc1Sc1ccc2c(/C=C/c3ccccn3)n[nH]c2c1 (racemic) [Reference Example 34] is ____. 78

Find the recorded inhibition at 1 µM belonging to `CCn1nc(C)cc1C(=O)Nc1cc(Nc2ccc3c(/C=C/c4ccccn4)n[nH]c3c2)c(F)cc1C` and report it. 13

What measured inhibition at 1 µM goes with Cn1ccnc1/C=N/NC(=O)c1ccccc1Sc1ccc2c(/C=C/c3ccccn3)n[nH]c2c1 [Reference Example 36(a)] ? 19

====

Measurement Parameters: mouse, in vivo, po, 25 mg/kg, pH 2.3
Binary classification by AUCleast, with 1000 ng·h/mL as an inclusive lower bound for True; all other cases are False.

>  <Molecule>
C=C(C)CNC(=O)c1ccccc1Sc1ccc2c(/C=C/c3ccccn3)n[nH]c2c1 [35 (ee)]

>  <Assigned Label>
False

$$$$

Check this molecule for AUCleast at or above 1000 ng·h/mL: CCONC(=O)c1ccccc1Sc1ccc2c(/C=C/c3ccccn3)n[nH]c2c1 [35 (dd)] True

Does O=C(NCc1ccncc1)c1ccccc1Sc1ccc2c(/C=C/c3ccccn3)n[nH]c2c1 [35 (p)] have a reported AUCleast of at least 1000 ng·h/mL? True

Check this molecule for AUCleast at or above 1000 ng·h/mL: Cn1ccnc1/C=N/NC(=O)c1ccccc1Sc1ccc2c(/C=C/c3ccccn3)n[nH]c2c1 [36 (a)] False

Entry CONC(=O)c1ccccc1Sc1ccc2c(/C=C/c3ccccn3)n[nH]c2c1 [35 (r)] : is its AUCleast no less than 1000 ng·h/mL? True

In plain terms: is recorded AUCleast at least 1000 ng·h/mL for Cc1cc(C(=O)Nc2cc(Nc3ccc4c(/C=C/c5ccccn5)n[nH]c4c3)ccc2C)n(C)n1 [49 (b)] ? True

Hello, I need to know if Cc1cnccc1C(=O)Nc1cccc(C(=O)c2ccc3c(/C=C/c4ccccn4)n[nH]c3c2)c1 [41 (j)] has measured AUCleast not below 1000 ng·h/mL. Thanks! True

Say whether CCCONC(=O)c1ccccc1Sc1ccc2c(/C=C/c3ccccn3)n[nH]c2c1 [35 (t)] shows AUCleast of 1000 ng·h/mL or more. True
